System: HeLa Kyoto
Procedure summary: solubility change mitosis vs G1/S (difference of NP-40 vs SDS log2 ratios) (log2 ratio difference); higher = more soluble in mitosis
Measurement name: solubility change mitosis (log2)
Give bare numbers.

MTAVNVALIRDTKWLTLEVCREFQRGTCSRADADCKFAHPPRVCHVENGRVVACFDSLKGRCTRENCKYLHPPPHLKTQLEINGRNNLIQQKTAAAMFAQQMQLMLQNAQMSSLGSFPMTPSIPANPPMAFNPYIPHPGMGLVPAELVPNTPVLIPGNPPLAMPGAVGPKLMRSDKLEVCREFQRGNCTRGENDCRYAHPTDASMIEASDNTVTICMDYIKGRCSREKCKYFHPPAHLQARLKAAHHQMNHSAASAMALQPGTLQLIPKRSALEKPNGATPVFNPTVFHCQQALTNLQLPQPAFIPAGPILCMAPASNIVPMMHGATPTTVSAATTPATSVPFAAPTTGNQLKF [MBNL3] : 0.156
MFLTRSEYDRGVNTFSPEGRLFQVEYAIEAIKLGSTAIGIQTSEGVCLAVEKRITSPLMEPSSIEKIVEIDAHIGCAMSGLIADAKTLIDKARVETQNHWFTYNETMTVESVTQAVSNLALQFGEEDADPGAMSRPFGVALLFGGVDEKGPQLFHMDPSGTFVQCDARAIGSASEGAQSSLQEVYHKSMTLKEAIKSSLIILKQVMEEKLNATNIELATVQPGQNFHMFTKEELEEVIKDI [PSMA5] : -0.0172

Could you now look at the following sequence, please?
[in] I would be grateful if you could share the reported solubility change mitosis (log2) for MASGVQVADEVCRIFYDMKVRKCSTPEEIKKRKKAVIFCLSADKKCIIVEEGKEILVGDVGVTITDPFKHFVGMLPEKDCRYALYDASFETKESRKEELMFFLWAPELAPLKSKMIYASSKDAIKKKFQGIKHECQANGPEDLNRACIAEKLGGSLIVAFEGCPV [DSTN] .
[out] -0.06

###

Test system: HeLa Kyoto
Procedure summary: melting temperature (median over replicates), in situ; higher = more thermally stable
Experimental parameters: cell cycle stage: mitosis
Could you please report measured melting temperature for the items listed next?
One number for each entry, in °C.

Some solved entries appear below for comparison.
MAAAWGSSLTAATQRAVTPWPRGRLLTASLGPQARREASSSSPEAGEGQIRLTDSCVQRLLEITEGSEFLRLQVEGGGCSGFQYKFSLDTVINPDDRVFEQGGARVVVDSDSLAFVKGAQVDFSQELIRSSFQVLNNPQAQQGCSCGSSFSIKL [ISCA2] : 53.4
MQPPPPGPLGDCLRDWEDLQQDFQNIQETHRLYRLKLEELTKLQNNCTSSITRQKKRLQELALALKKCKPSLPAEAEGAAQELENQMKERQGLFFDMEAYLPKKNGLYLSLVLGNVNVTLLSKQAKFAYKDEYEKFKLYLTIILILISFTCRFLLNSRVTDAAFNFLLVWYYCTLTIRESILINNGSRIKGWWVFHHYVSTFLSGVMLTWPDGLMYQKFRNQFLSFSMYQSFVQFLQYYYQSGCLYRLRALGERHTMDLTVEGFQSWMWRGLTFLLPFLFFGHFWQLFNALTLFNLAQDPQCKEWQVLMCGFPFLLLFLGNFFTTLRVVHHKFHSQRHGSKKD [TMPIT] : 53.4
MSKYKLIMLRHGEGAWNKENRFCSWVDQKLNSEGMEEARNCGKQLKALNFEFDLVFTSVLNRSIHTAWLILEELGQEWVPVESSWRLNERHYGALIGLNREQMALNHGEEQVRLWRRSYNVTPPPIEESHPYYQEIYNDRRYKVCDVPLDQLPRSESLKDVLERLLPYWNERIAPEVLRGKTILISAHGNSSRALLKHLEGISDEDIINITLPTGVPILLELDENLRAVGPHQFLGDQEAIQAAIKKVEDQGKVKQAKK [BPGM] : 55.1
MANSANTNTVPKLYRSVIEDVINDVRDIFLDDGVDEQVLMELKTLWENKLMQSRAVDGFHSEEQQLLLQVQQQHQPQQQQHHHHHHHQQAQPQQTVPQQAQTQQVLIPASQQATAPQVIVPDSKLIQHMNASNMSAAATAATLALPAGVTPVQQILTNSGQLLQVVRAANGAQYIFQPQQSVVLQQQVIPQMQPGGVQAPVIQQVLAPLPGGISPQTGVIIQPQQILFTGNKTQVIPTTVAAPTPAQAQITATGQQQPQAQPAQTQAPLVLQVDGTGDTSSEEDEDEEEDYDDDEEEDKEKDGAEDGQVEEEPLNSEDDVSDEEGQELFDTENVVVCQYDKIHRSKNKWKFHLKDGIMNLNGRDYIFSKAIGDAEW [GTF2A1] : 57.2

Could you now look at the following sequence, please?
[in] I would be grateful if you could share the reported melting temperature for MERAVPLAVPLGQTEVFQALQRLHMTIFSQSVSPCGKFLAAGNNYGQIAIFSLSSALSSEAKEESKKPVVTFQAHDGPVYSMVSTDRHLLSAGDGEVKAWLWAEMLKKGCKELWRRQPPYRTSLEVPEINALLLVPKENSLILAGGDCQLHTMDLETGTFTRVLRGHTDYIHCLALRERSPEVLSGGEDGAVRLWDLRTAKEVQTIEVYKHEECSRPHNGRWIGCLATDSDWMVCGGGPALTLWHLRSSTPTTIFPIRAPQKHVTFYQDLILSAGQGRCVNQWQLSGELKAQVPGSSPGLLSLSLNQQPAAPECKVLTAAGNSCRVDVFTNLGYRAFSLSF [THOC6] .
[out] 51.2

###

System: HeLa Kyoto
Procedure summary: melting temperature (median over replicates), in situ; higher = more thermally stable
Experimental parameters: cell cycle stage: G1/S
Measurement name: melting temperature (°C)
Numbers only, in °C.

MTLESIMACCLSEEAKEARRINDEIERQLRRDKRDARRELKLLLLGTGESGKSTFIKQMRIIHGSGYSDEDKRGFTKLVYQNIFTAMQAMIRAMDTLKIPYKYEHNKAHAQLVREVDVEKVSAFENPYVDAIKSLWNDPGIQECYDRRREYQLSDSTKYYLNDLDRVADPAYLPTQQDVLRVRVPTTGIIEYPFDLQSVIFRMVDVGGQRSERRKWIHCFENVTSIMFLVALSEYDQVLVESDNENRMEESKALFRTIITYPWFQNSSVILFLNKKDLLEEKIMYSHLVDYFPEYDGPQRDAQAAREFILKMFVDLNPDSDKIIYSHFTCATDTENIRFVFAAVKDTILQLNLKEYNLV [GNAQ] : 54.7
MVLIKEFRVVLPCSVQEYQVGQLYSVAEASKNETGGGEGIEVLKNEPYEKDGEKGQYTHKIYHLKSKVPAFVRMIAPEGSLVFHEKAWNAYPYCRTIVTNEYMKDDFFIKIETWHKPDLGTLENVHGLDPNTWKTVEIVHIDIADRSQVEPADYKADEDPALFQSVKTKRGPLGPNWKKELANSPDCPQMCAYKLVTIKFKWWGLQSKVENFIQKQEKRIFTNFHRQLFCWIDKWIDLTMEDIRRMEDETQKELETMRKRGSVRGTSAADV [PITPNB] : 52.9

The following sequences each have a reported value; give each one's melting temperature.
1. MESMAVATDGGERPGVPAGSGLSASQRRAELRRRKLLMNSEQRINRIMGFHRPGSGAEEESQTKSKQQDSDKLNSLSVPSVSKRVVLGDSVSTGTTDQQGGVAEVKGTQLGDKLDSFIKPPECSSDVNLELRQRNRGDLTADSVQRGSRHGLEQYLSRFEEAMKLRKQLISEKPSQEDGNTTEEFDSFRIFRLVGCALLALGVRAFVCKYLSIFAPFLTLQLAYMGLYKYFPKSEKKIKTTVLTAALLLSGIPAEVINRSMDTYSKMGEVFTDLCVYFFTFIFCHELLDYWGSEVP [CAMLG]
2. MLRAGWLRGAAALALLLAARVVAAFEPITVGLAIGAASAITGYLSYNDIYCRFAECCREERPLNASALKLDLEEKLFGQHLATEVIFKALTGFRNNKNPKKPLTLSLHGWAGTGKNFVSQIVAENLHPKGLKSNFVHLFVSTLHFPHEQKIKLYQDQLQKWIRGNVSACANSVFIFDEMDKLHPGIIDAIKPFLDYYEQVDGVSYRKAIFIFLSNAGGDLITKTALDFWRAGRKREDIQLKDLEPVLSVGVFNNKHSGLWHSGLIDKNLIDYFIPFLPLEYRHVKMCVRAEMRARGSAIDEDIVTRVAEEMTFFPRDEKIYSDKGCKTVQSRLDFH [TOR1B]
3. MSLEDPFFVVRGEVQKAVNTARGLYQRWCELLQESAAVGREELDWTTNELRNGLRSIEWDLEDLEETIGIVEANPGKFKLPAGDLQERKVFVERMREAVQEMKDHMVSPTAVAFLERNNREILAGKPAAQKSPSDLLDASAVSATSRYIEEQQATQQLIMDEQDQQLEMVSGSIQVLKHMSGRVGEELDEQGIMLDAFAQEMDHTQSRMDGVLRKLAKVSHMTSDRRQWCAIAVLVGVLLLVLILLFSL [STX10]
4. MAEAGTGEPSPSVEGEHGTEYDTLPSDTVSLSDSDSDLSLPGGAEVEALSPMGLPGEEDSGPDEPPSPPSGLLPATVQPFHLRGMSSTFSQRSRDIFDCLEGAARRAPSSVAHTSMSDNGGFKRPLAPSGRSPVEGLGRAHRSPASPRVPPVPDYVAHPERWTKYSLEDVTEVSEQSNQATALAFLGSQSLAAPTDCVSSFNQDPSSCGEGRVIFTKPVRGVEARHERKRVLGKVGEPGRGGLGNPATDRGEGPVELAHLAGPGSPEAEEWGSHHGGLQEVEALSGSVHSGSVPGLPPVETVGFHGSRKRSRDHFRNKSSSPEDPGAEV [TSSC4]
5. MAAAALRRFWSRRRAEAGDAVVAKPGVWARLGSWARALLRDYAEACRDASAEARARPGRAAVYVGLLGGAAACFTLAPSEGAFEEALLEASGTLLLLAPATRNRESEAFVQRLLWLRGRGRLRYVNLGLCSLVYEAPFDAQASLYQARCRYLQPRWTDFPGRVLDVGFVGRWWVLGAWMRDCDINDDEFLHLPAHLRVVGPQQLHSETNERLFDEKYKPVVLTDDQVDQALWEEQVLQKEKKDRLALSQAHSLVQAEAPR [C19ORF52]
6. MSFVAYEELIKEGDTAILSLGHGAMVAVRVQRGAQTQTRHGVLRHSVDLIGRPFGSKVTCGRGGWVYVLHPTPELWTLNLPHRTQILYSTDIALITMMLELRPGSVVCESGTGSGSVSHAIIRTIAPTGHLHTVEFHQQRAEKAREEFQEHRVGRWVTVRTQDVCRSGFGVSHVADAVFLDIPSPWEAVGHAWDALKVEGGRFCSFSPCIEQVQRTCQALAARGFSELSTLEVLPQVYNVRTVSLPPPDLGTGTDGPAGSDTSPFRSGTPMKEAVGHTGYLTFATKTPG [TRMT61A]

[out]
57.8
53.7
52.1
51
53.5
55.4

The following sequences each have a reported value; give each one's melting temperature.
1. MSSKRTKTKTKKRPQRATSNVFAMFDQSQIQEFKEAFNMIDQNRDGFIDKEDLHDMLASLGKNPTDEYLDAMMNEAPGPINFTMFLTMFGEKLNGTDPEDVIRNAFACFDEEATGTIQEDYLRELLTTMGDRFTDEEVDELYREAPIDKKGNFNYIEFTRILKHGAKDKDD [MYL12A]
2. MAPMGIRLSPLGVAVFCLLGLGVLYHLYSGFLAGRFSLFGLGGEPGGGAAGPAAAADGGTVDLREMLAVSVLAAVRGGDEVRRVRESNVLHEKSKGKTREGAEDKMTSGDVLSNRKMFYLLKTAFPSVQINTEEHVDAADQEVILWDHKIPEDILKEVTTPKEVPAESVTVWIDPLDATQEYTEDLRKYVTTMVCVAVNGKPMLGVIHKPFSEYTAWAMVDGGSNVKARSSYNEKTPRIVVSRSHSGMVKQVALQTFGNQTTIIPAGGAGYKVLALLDVPDKSQEKADLYIHVTYIKKWDICAGNAILKALGGHMTTLSGEEISYTGSDGIEGGLLASIRMNHQALVRKLPDLEKTGHK [IMPAD1]

[out]
1: 54; 2: 59.1
